Numbers sourced from patent US20260242735A1.

Each item that follows carries a reported Mean % WT Binding.
# measured on: human CD33 F44T (human, UniProt P20138 18-364)
# Sequence (P20138 18-364 F44T limits assumed): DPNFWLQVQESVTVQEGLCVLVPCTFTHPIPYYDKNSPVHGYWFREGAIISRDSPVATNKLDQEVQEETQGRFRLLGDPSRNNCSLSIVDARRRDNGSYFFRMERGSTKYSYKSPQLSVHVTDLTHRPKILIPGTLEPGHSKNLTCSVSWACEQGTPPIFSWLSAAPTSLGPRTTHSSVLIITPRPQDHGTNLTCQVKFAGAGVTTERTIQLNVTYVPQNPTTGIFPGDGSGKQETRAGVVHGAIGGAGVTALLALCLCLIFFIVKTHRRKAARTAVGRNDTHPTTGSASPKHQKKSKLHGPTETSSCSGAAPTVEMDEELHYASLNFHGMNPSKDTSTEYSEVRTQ
# run description: flow cytometry, mutant on cells, IgG

{"binder": "Refmab #4 (antibody, human IgG1, V domains shown, Tested in IgG format; human IgG1 Fc silent (PG-LALA)) VH: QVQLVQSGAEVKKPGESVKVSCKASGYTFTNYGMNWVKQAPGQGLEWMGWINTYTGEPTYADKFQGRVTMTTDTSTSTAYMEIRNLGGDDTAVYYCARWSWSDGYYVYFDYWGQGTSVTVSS VL: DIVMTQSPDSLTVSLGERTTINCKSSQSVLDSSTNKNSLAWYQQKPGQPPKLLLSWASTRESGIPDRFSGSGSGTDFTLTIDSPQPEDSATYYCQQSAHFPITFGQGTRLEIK", "Mean % WT Binding (% WT binding)": 97.1}
{"binder": "Refmab #1 (antibody, human IgG1, V domains shown, Tested in IgG format; human IgG1 (Absolute Antibody hP67.6, Cat. No. Ab00283-10.0); also called hP67.6) VH: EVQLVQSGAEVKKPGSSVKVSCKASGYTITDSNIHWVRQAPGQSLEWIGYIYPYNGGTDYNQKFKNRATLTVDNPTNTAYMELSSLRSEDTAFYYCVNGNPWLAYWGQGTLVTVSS VL: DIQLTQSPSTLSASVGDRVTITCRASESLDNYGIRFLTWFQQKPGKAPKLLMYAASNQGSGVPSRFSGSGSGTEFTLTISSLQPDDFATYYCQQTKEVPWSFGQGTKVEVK", "Mean % WT Binding (% WT binding)": 107}
{"binder": "Refmab #2 (antibody, human IgG1, V domains shown, Tested in IgG format; human IgG1 Fc silent (PG-LALA)) VH: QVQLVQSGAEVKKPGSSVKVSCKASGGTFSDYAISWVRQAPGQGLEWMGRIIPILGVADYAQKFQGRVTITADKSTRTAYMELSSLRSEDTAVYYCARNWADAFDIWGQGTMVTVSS VL: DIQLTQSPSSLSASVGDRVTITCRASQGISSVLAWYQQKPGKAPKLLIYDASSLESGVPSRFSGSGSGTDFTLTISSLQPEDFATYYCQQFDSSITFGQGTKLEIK", "Mean % WT Binding (% WT binding)": 0.8}
{"binder": "Refmab #3 (antibody, human IgG1, V domains shown, Tested in IgG format; human IgG1 Fc silent (PG-LALA)) VH: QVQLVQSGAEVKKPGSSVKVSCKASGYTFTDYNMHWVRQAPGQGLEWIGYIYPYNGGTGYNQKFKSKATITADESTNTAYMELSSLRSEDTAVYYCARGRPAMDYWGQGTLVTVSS VL: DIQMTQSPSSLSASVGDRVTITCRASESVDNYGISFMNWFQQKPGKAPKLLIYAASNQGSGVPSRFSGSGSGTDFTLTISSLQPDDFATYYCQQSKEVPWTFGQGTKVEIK", "Mean % WT Binding (% WT binding)": 83.3}
